Test Description: Repeated once-daily oral dosing with food (Days 1-7) in healthy subjects, PK and PD
Type: in vivo, human
Assay Context: both sexes, human, plasma, oral, 12 mg, Day 7; read-out: average t½, range across age groups
Endpoint Label: half-life

# return recorded half-life for input Cc1ccc(COC(=O)N2CC[C@H](CNc3ncccn3)[C@H](F)C2)cc1 [Form II] 20 to 28 h

###

Test Description: Acute depression model, forced swim test
Type: in vivo, rat
Assay Context: male, Sprague-Dawley, rat, plasma, 0.3 mg/kg; read-out: plasma level at time of sampling
Endpoint Label: concentration at 50 min

Please look at this molecule and report its concentration at 50 min: Cc1ccc(COC(=O)N2CC[C@H](CNc3ncccn3)[C@H](F)C2)cc1 [Form II] ~120 nM
